Hello, the source for this data is PubChem BioAssay AID1159580, in case you need it.

assayMethodText: chemical genetic growth profiling, strain panel (AID 1159580);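 note: tested at 20 µM; growth read once vehicle control cultures reached saturation at 30 °C; 1 = growth at the plate median or of vehicle wells; lower values mean less growth of the strain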
testConditions: S. cerevisiae deletion strains, growth OD, locus YCL069W, strain vba3, hits give low values
The campaign covered roughly 5,500 compounds. About 2,000 (36%) were called active. About 18% were inconclusive and are not listed. The list shows a part of the results.
measurementKind: normalized growth
Answer with the value's number alone.

Previously resolved entries follow.
1) O=C(N[C@@H](CO)[C@H](O)c1ccc([N+](=O)[O-])cc1)C(Cl)Cl = 1.02
2) O=C(O)CCC(=O)OC[C@@H](NC(=O)C(Cl)Cl)[C@H](O)c1ccc([N+](=O)[O-])cc1 = 0.982
3) COC(=O)CC1C(C)(C(=O)c2ccoc2)CC2OCC34C(CC(=O)OC)C5(C)CC36OC3(C)OC1(C(OC(C)=O)C6(OC(C)=O)C5OC(=O)C(C)C)C24O3 (centres undefined) = 0.979
4) COc1cc(O)ccc1C(C)=O = 1.01
5) COc1ccc(CC(=O)c2ccc(O)cc2O)cc1 = 0.982

Enquiry: I would be grateful if you could share the reported normalized growth for COC(=O)C[C@H]1C(C)(C)[C@@H](OC(C)=O)[C@@H]2CC3=C4CC(=O)O[C@@H](c5ccoc5)[C@]4(C)CCC3[C@@]1(C)C2=O (some centres undefined) .
Return: 0.984

Enquiry: I would be grateful if you could share the reported normalized growth for NS(=O)(=O)c1cc2c(cc1Cl)NCNS2(=O)=O .
Return: 0.993

Enquiry: I would be grateful if you could share the reported normalized growth for C[C@H]1C(=O)CCC2[C@]3(C)CC[C@@]4(C)C5CC(C)(C)CC[C@]5(C)CC[C@]4(C)C3CC[C@@]21C (some centres undefined) .
Return: 1.01

Enquiry: I would be grateful if you could share the reported normalized growth for COc1ccc([C@@H](C)C(=O)c2ccc(O)cc2O)cc1 .
Return: 0.955

---

assayMethodText: chemical genetic growth profiling, strain panel (AID 1159580)
testConditions: S. cerevisiae deletion strains, growth OD, locus YMR223W, strain ubp8, hits give low values
In all, about 5,500 compounds went through this assay and about 2,000 (36%) were called active. Another 18% or so got no clear call; they are omitted. The list shows a part of the results.
measurementKind: normalized growth

Previously resolved entries follow.
1) COc1ccccc1OCC(O)COC(N)=O (stereo not given) = 0.964 (inactive)
2) COC(=O)C(O)[C@H]1C(C)(C)[C@@H](OC(C)=O)[C@@H]2CC3=C4CC(=O)O[C@@H](c5ccoc5)[C@]4(C)CCC3[C@@]1(C)C2=O (stereo not given in full) = 0.99 (inactive)
3) CCC[C@@H]1C[C@@H](C(=O)N[C@H]([C@H]2O[C@H](SC)[C@H](O)[C@@H](O)[C@H]2O)[C@H](C)O)N(C)C1 = 0.962 (inactive)
4) CC(C)[C@@H]1CC[C@@H](C)C[C@H]1OC(=O)c1ccccc1 = 0.995 (inactive)

Enquiry: I would be grateful if you could share the reported normalized growth for N[C@@H](C(=O)N[C@@H]1C(=O)N2C(C(=O)O)=C(Cl)CS[C@H]12)c1ccccc1 .
Return: 1.02 (inactive)

Enquiry: I would be grateful if you could share the reported normalized growth for CC(C)=CCC/C(C)=C/CO .
Return: 1.01 (inactive)

Enquiry: I would be grateful if you could share the reported normalized growth for CNC(=O)N(C)c1nnc(C(C)(C)C)s1 .
Return: 1.02 (inactive)

Enquiry: I would be grateful if you could share the reported normalized growth for COc1ccc(-c2c(OC)c3c(OC)c4c(cc3oc2=O)OC(C)(C)C=C4)cc1 .
Return: 1.02 (inactive)

Enquiry: I would be grateful if you could share the reported normalized growth for COc1cc(OC)c2c(OC)c(-c3ccc4c(c3)OCO4)c(=O)oc2c1 .
Return: 0.981 (inactive)

Enquiry: I would be grateful if you could share the reported normalized growth for COC(=O)C[C@H]1C(C)(C)[C@H](O)[C@@H]2CC3=C4CC(O)O[C@@H](c5ccoc5)[C@]4(C)CCC3[C@@]1(C)C2=O (stereo not given in full) .
Return: 1 (inactive)

Enquiry: I would be grateful if you could share the reported normalized growth for C[C@]12CC[C@@H](O)C[C@H]1CCc1ccccc12 .
Return: 0.985 (inactive)

Enquiry: I would be grateful if you could share the reported normalized growth for C[N+]12CCC(CC1)C(OC(=O)C(O)(c1ccccc1)c1ccccc1)C2 (stereo not given) .
Return: 1.01 (inactive)

---

assayMethodText: chemical genetic growth profiling, strain panel (AID 1159580)
testConditions: S. cerevisiae deletion strains, growth OD, locus YDL185W, strain tfp1
About 2,000 (36%) of roughly 5,500 compounds were called active. Not shown: some 18% with an inconclusive outcome. Cut-off read from the data, not from the text of the source: active = normalized growth mostly below about 0.91 (no sharp cut-off); inconclusive = no clear call, values can overlap the other calls; inactive = mostly above about 0.92. This is one part of the list.
Pick one and only one: YES = active, NO = inactive

1) CC(NC(C)(C)C)C(=O)c1cccc(Cl)c1 (centres undefined) = NO
2) Cc1ccc(O)c(C(CCN(C(C)C)C(C)C)c2ccccc2)c1 (centres undefined) = NO
3) CN1C(=O)CC[C@H]1c1cccnc1 = NO
4) O=C1c2ccccc2C(=O)c2ccccc21 = NO
5) COc1ccc([C@@H](C)C(=O)c2ccc(O)cc2O)cc1 = NO

Enquiry: Write down the call the test reported for this compound. Item: CC(C)N=C(N)N=C(N)Nc1ccc(Cl)cc1
Return: NO

Enquiry: Write down the call the test reported for this compound. Item: CC(C)OC(=O)Nc1cccc(Cl)c1
Return: NO

Enquiry: Write down the call the test reported for this compound. Item: O=C(O)c1cc(O)c2c(c1)C(=O)c1cc(O)cc(O)c1C2=O
Return: YES

Enquiry: Write down the call the test reported for this compound. Item: COc1ccc(-c2c(O)c3c(OC)c4c(cc3oc2=O)OC(C)(C)C=C4)cc1
Return: NO

Enquiry: Write down the call the test reported for this compound. Item: O=C1c2cccc(O)c2C(=O)c2c(O)cccc21
Return: YES

Enquiry: Write down the call the test reported for this compound. Item: COc1cc(O)ccc1C(C)=O
Return: NO

---

assayMethodText: chemical genetic growth profiling, strain panel (AID 1159580);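 note: tested at 20 µM; growth read once vehicle control cultures reached saturation at 30 °C; 1 = growth at the plate median or of vehicle wells; lower values mean less growth of the strain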
testConditions: S. cerevisiae deletion strains, growth OD, locus YJL164C, strain tpk1, hits give low values
About 2,000 (36%) of roughly 5,500 compounds were called active. About 18% were inconclusive and are not listed. The list shows a part of the results.
measurementKind: normalized growth
Answer with the value's number alone.

1) COC(=O)C[C@H]1C(C)(C)[C@@H](OC(C)=O)[C@@H]2CC3=C4CC(=O)O[C@@H](c5ccoc5)[C@]4(C)CCC3[C@@]1(C)C2=O (stereo not given in full) = 1.03
2) NC(=NCCCCCCN=C(N)N=C(N)Nc1ccc(Cl)cc1)N=C(N)Nc1ccc(Cl)cc1 = 0.0644
3) CC(=CC1CCC(C)C2C1=C(C)CC2O)C(=O)O (stereo not given) = 1.01

Enquiry: I would be grateful if you could share the reported normalized growth for CC(C)CCCC(C)N (stereo not given) .
Return: 1.03

Enquiry: I would be grateful if you could share the reported normalized growth for CCCCCC/C=C\CCCCCCCc1cccc(O)c1C(=O)O .
Return: 0.999

---

Measured normalized growth accompanies every entry in the list below.
assayMethodText: chemical genetic growth profiling, strain panel (AID 1159580);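 note: tested at 20 µM; growth read once vehicle control cultures reached saturation at 30 °C; 1 = growth at the plate median or of vehicle wells; lower values mean less growth of the strain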
testConditions: S. cerevisiae deletion strains, growth OD, locus YPL055C, strain LGE1, hits give low values
About 2,000 (36%) of roughly 5,500 compounds were called active. Another 18% or so got no clear call; they are omitted. The list shows a part of the results.
Answer with the value's number alone.

Previously resolved entries follow.
1. C/C(=N/O)c1ccn(S(=O)(=O)c2ccc(Cl)cc2)c1 = 0.989
2. CCOC(=O)c1ccc(Oc2ncc(C(F)(F)F)cc2Cl)cc1 = 1.08

Enquiry: I would be grateful if you could share the reported normalized growth for CCOC(=O)c1ccc(N2CC3CCCCN3C2c2ccc(Cl)c(Cl)c2)cc1 (stereo not given) .
Return: 0.922

Enquiry: I would be grateful if you could share the reported normalized growth for O=C(Cc1ccc(Cl)c(Cl)c1)N1CCCCC1CN1CCCC1 (stereo not given) .
Return: 1.01

Enquiry: I would be grateful if you could share the reported normalized growth for O=C(O)C1c2ccccc2C(=O)N(Cc2ccc3c(c2)OCO3)C1c1cccnc1 (stereo not given) .
Return: 1.03

---

assayMethodText: chemical genetic growth profiling, strain panel (AID 1159580);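 note: tested at 20 µM; growth read once vehicle control cultures reached saturation at 30 °C; 1 = growth at the plate median or of vehicle wells; lower values mean less growth of the strain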
testConditions: S. cerevisiae deletion strains, growth OD, locus YOR061W, strain CKA2, hits give low values
Among all 5,500 compounds or so, about 2,000 (36%) were called active. About 18% were inconclusive and are not listed. The list shows a part of the results.
Measured normalized growth accompanies every entry in the list below.
Answer with the value's number alone.

Enquiry: I would be grateful if you could share the reported normalized growth for C=C(C)C1Cc2c(ccc(C(=O)O)c2O)O1 (stereo not drawn) .
Return: 0.995
